- ASSAY: Cycloheximide Counterscreen for Small Molecule Inhibitors of Shiga Toxin; further: read at 38.3 µM for the half of the compounds with a filed dose; 0% is about no effect
- COND: cell reporter, cycloheximide protein synthesis inhibition counterscreen; active compounds read high
In all, about 300,000 compounds went through this assay and about 37,000 (12%) were called active. Only a selection was taken, and actives are over-represented in it overall.
# key: entry, value: max response

{"COMPOUND": "COc1cccc(NC(=O)CN(C)C(C)C(=O)Nc2ccc(C#N)cc2)c1 (centres undefined)", "max response [%]": 11.8}
{"COMPOUND": "COc1cc(OC)c2c(c1C(CCN1CCCCC1)c1ccc(N(C)C)cc1)OC(=O)CC2c1ccc(N(C)C)cc1 (centres undefined)", "max response [%]": -4.1}
{"COMPOUND": "COC(=O)c1ccc(Sc2ccc(F)cc2)c(N)c1", "max response [%]": 24.1}
{"COMPOUND": "Cc1ccccc1C1=NC(C(F)(F)F)(C(F)(F)F)c2c(n(-c3ccc(F)cc3)c(=O)[nH]c2=O)N1", "max response [%]": -1.61}

---

- ASSAY: Cycloheximide Counterscreen for Small Molecule Inhibitors of Shiga Toxin; further: read at 38.3 µM for the half of the compounds with a filed dose; 0% is about no effect
- COND: cell reporter, cycloheximide protein synthesis inhibition counterscreen; active compounds read high
In all, about 300,000 compounds went through this assay and about 37,000 (12%) were called active. Only a selection was taken, and actives are over-represented in it overall.
max response values, listed per item
PROPERTY NAME: max response (%)

{"MOLECULE": "CC(=O)NCC(=O)NC1CCCc2c1cnn2-c1ccccc1F (centres undefined)", "PROPERTY NAME": "max response", "MEASUREMENT UNIT": "%", "RESULT NUMBER": 5.35}
{"MOLECULE": "COC(=O)c1ccc(/C=N/NC(=O)C(=O)N2CCCCCC2)cc1", "PROPERTY NAME": "max response", "MEASUREMENT UNIT": "%", "RESULT NUMBER": -2.86}
{"MOLECULE": "Cc1c(C(=O)N2CC(C)OC(C)C2)sc2nc(-c3ccccc3)cn12 (centres undefined)", "PROPERTY NAME": "max response", "MEASUREMENT UNIT": "%", "RESULT NUMBER": 26.8}
{"MOLECULE": "Cc1ccc(NC(=O)CN(C)CC(=O)Nc2cccc(F)c2)cc1[N+](=O)[O-]", "PROPERTY NAME": "max response", "MEASUREMENT UNIT": "%", "RESULT NUMBER": -3.93}
{"MOLECULE": "O=C(Nc1cc2ccccc2oc1=O)C1CCCCC1", "PROPERTY NAME": "max response", "MEASUREMENT UNIT": "%", "RESULT NUMBER": 34.2}
{"MOLECULE": "Cc1[nH]c2ccccc2c1C(=O)CN1CCCC(C)C1 (centres undefined)", "PROPERTY NAME": "max response", "MEASUREMENT UNIT": "%", "RESULT NUMBER": 4.44}
{"MOLECULE": "N#CCSc1nc2ccc(N3CCOCC3)cc2c(=O)n1CCc1ccccc1", "PROPERTY NAME": "max response", "MEASUREMENT UNIT": "%", "RESULT NUMBER": 10.2}
{"MOLECULE": "Cc1ccc(C(=O)NC(C)c2ccccc2)cc1Br (centres undefined)", "PROPERTY NAME": "max response", "MEASUREMENT UNIT": "%", "RESULT NUMBER": 12.6}
{"MOLECULE": "CC(=O)Nc1cc2ccc(OC(C)=O)cc2oc1=O", "PROPERTY NAME": "max response", "MEASUREMENT UNIT": "%", "RESULT NUMBER": -3.66}
{"MOLECULE": "CC(C)CNC(=O)COC(=O)/C=C/c1ccco1", "PROPERTY NAME": "max response", "MEASUREMENT UNIT": "%", "RESULT NUMBER": -2.86}
{"MOLECULE": "COC(=O)c1ccc(C(=O)OC)c(NC(=S)N2CCCCC2)c1", "PROPERTY NAME": "max response", "MEASUREMENT UNIT": "%", "RESULT NUMBER": 1.84}
{"MOLECULE": "Cc1ccc(C)c(OCCC(=O)OCC(=O)N2CCN(c3ccccc3)CC2)c1", "PROPERTY NAME": "max response", "MEASUREMENT UNIT": "%", "RESULT NUMBER": -1.98}
{"MOLECULE": "CC1CN(C(=S)Nc2ccccc2F)CC(C)O1 (centres undefined)", "PROPERTY NAME": "max response", "MEASUREMENT UNIT": "%", "RESULT NUMBER": 1.94}
{"MOLECULE": "Cc1ccc(C(C)(C)C)c(OCCCCN2CCCC2)c1", "PROPERTY NAME": "max response", "MEASUREMENT UNIT": "%", "RESULT NUMBER": -1.44}
{"MOLECULE": "COc1ccc(Cl)cc1C(=O)NNC(=S)NC(=O)/C=C/c1ccco1", "PROPERTY NAME": "max response", "MEASUREMENT UNIT": "%", "RESULT NUMBER": 0.62}
{"MOLECULE": "CC1CN(C(=S)SCC(=O)c2ccccc2)CC(C)O1 (centres undefined)", "PROPERTY NAME": "max response", "MEASUREMENT UNIT": "%", "RESULT NUMBER": 34.8}
{"MOLECULE": "CC1=C(/C=C/C(C)=C/C=C/C(C)=C/C=C/C=C(C)/C=C/C=C(C)/C=C/C(=O)[C@]2(C)C[C@@H](O)CC2(C)C)C(C)(C)C[C@H](O)C1", "PROPERTY NAME": "max response", "MEASUREMENT UNIT": "%", "RESULT NUMBER": 9.8}
{"MOLECULE": "COc1ccc(/C=C/C(=O)NC(=S)N2CCCC(C(N)=O)C2)cc1 (centres undefined)", "PROPERTY NAME": "max response", "MEASUREMENT UNIT": "%", "RESULT NUMBER": 12.7}
{"MOLECULE": "O=C(CSC(=S)N1CCOCC1)c1ccccc1", "PROPERTY NAME": "max response", "MEASUREMENT UNIT": "%", "RESULT NUMBER": 19}
{"MOLECULE": "O=C(CNc1cccc(S(=O)(=O)N2CCCCC2)c1)Nc1ccccc1F", "PROPERTY NAME": "max response", "MEASUREMENT UNIT": "%", "RESULT NUMBER": -2.83}
{"MOLECULE": "Cc1ccccc1C(=O)N1CCC(C(=O)Nc2ccc(S(=O)(=O)N(C)C(C)C)cc2)CC1", "PROPERTY NAME": "max response", "MEASUREMENT UNIT": "%", "RESULT NUMBER": 4.98}
{"MOLECULE": "COc1ccc(C(=O)N[C@H](C(=O)NCc2ccccc2)C(C)C)cc1", "PROPERTY NAME": "max response", "MEASUREMENT UNIT": "%", "RESULT NUMBER": 1.24}
{"MOLECULE": "COC(=O)[C@H](Cc1ccccc1)NC(=O)N1CC(C)OC(C)C1 (some centres undefined)", "PROPERTY NAME": "max response", "MEASUREMENT UNIT": "%", "RESULT NUMBER": 0.915}
{"MOLECULE": "Cc1c(C(=O)N2CCCc3ccccc32)sc2nc(-c3ccccc3)cn12", "PROPERTY NAME": "max response", "MEASUREMENT UNIT": "%", "RESULT NUMBER": 7.76}
{"MOLECULE": "O=C(CSC(=S)N1CCCCC1)c1c(F)cccc1F", "PROPERTY NAME": "max response", "MEASUREMENT UNIT": "%", "RESULT NUMBER": 42.5}
{"MOLECULE": "COc1ccc(CNC(=O)c2ccc3oc(C(C)C)nc3c2)cc1", "PROPERTY NAME": "max response", "MEASUREMENT UNIT": "%", "RESULT NUMBER": 43.8}
{"MOLECULE": "CCc1cc2c(=O)c(-c3ccon3)c(N)oc2cc1OC", "PROPERTY NAME": "max response", "MEASUREMENT UNIT": "%", "RESULT NUMBER": 40.8}
{"MOLECULE": "COc1ccc(C(=O)Nc2ccc(C(=O)NCC3CCCO3)cc2)c(OC)c1OC (centres undefined)", "PROPERTY NAME": "max response", "MEASUREMENT UNIT": "%", "RESULT NUMBER": -0.955}
{"MOLECULE": "Cc1nnc2n1N=C(c1ccccc1)CS2", "PROPERTY NAME": "max response", "MEASUREMENT UNIT": "%", "RESULT NUMBER": -4.21}
